# TEST_TARGET: H1047R PIK3CA enzyme (Homo sapiens, UniProt P42336, H1047R)
# Sequence (P42336 whole entry H1047R): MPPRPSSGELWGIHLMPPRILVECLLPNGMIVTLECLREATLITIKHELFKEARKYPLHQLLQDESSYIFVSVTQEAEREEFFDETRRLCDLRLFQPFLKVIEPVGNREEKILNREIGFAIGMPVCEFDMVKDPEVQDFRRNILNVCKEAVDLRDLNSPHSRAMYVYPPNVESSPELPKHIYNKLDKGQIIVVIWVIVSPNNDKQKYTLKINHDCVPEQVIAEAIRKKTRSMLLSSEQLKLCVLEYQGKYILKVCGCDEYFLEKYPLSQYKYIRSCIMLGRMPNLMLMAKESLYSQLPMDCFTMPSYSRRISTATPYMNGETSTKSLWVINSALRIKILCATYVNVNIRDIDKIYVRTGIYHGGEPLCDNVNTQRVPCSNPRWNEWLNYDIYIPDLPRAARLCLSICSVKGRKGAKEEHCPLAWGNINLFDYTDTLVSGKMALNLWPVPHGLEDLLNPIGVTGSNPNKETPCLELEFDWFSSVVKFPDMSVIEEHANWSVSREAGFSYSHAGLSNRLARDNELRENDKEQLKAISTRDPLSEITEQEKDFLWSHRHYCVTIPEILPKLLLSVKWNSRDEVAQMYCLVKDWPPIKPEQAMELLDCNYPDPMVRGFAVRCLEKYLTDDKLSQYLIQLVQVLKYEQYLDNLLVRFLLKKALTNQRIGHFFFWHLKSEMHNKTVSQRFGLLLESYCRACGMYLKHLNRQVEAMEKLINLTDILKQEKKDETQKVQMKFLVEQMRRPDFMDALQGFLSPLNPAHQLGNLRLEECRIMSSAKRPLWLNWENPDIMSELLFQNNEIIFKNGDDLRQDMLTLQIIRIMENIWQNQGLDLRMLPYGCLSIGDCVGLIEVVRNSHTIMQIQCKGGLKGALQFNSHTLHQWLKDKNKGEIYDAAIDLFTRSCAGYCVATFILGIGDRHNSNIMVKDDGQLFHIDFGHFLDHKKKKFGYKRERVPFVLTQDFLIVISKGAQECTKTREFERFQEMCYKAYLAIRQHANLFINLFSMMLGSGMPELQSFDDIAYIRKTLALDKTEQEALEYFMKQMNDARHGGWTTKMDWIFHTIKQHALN
# Sequence (P27986 whole entry partner): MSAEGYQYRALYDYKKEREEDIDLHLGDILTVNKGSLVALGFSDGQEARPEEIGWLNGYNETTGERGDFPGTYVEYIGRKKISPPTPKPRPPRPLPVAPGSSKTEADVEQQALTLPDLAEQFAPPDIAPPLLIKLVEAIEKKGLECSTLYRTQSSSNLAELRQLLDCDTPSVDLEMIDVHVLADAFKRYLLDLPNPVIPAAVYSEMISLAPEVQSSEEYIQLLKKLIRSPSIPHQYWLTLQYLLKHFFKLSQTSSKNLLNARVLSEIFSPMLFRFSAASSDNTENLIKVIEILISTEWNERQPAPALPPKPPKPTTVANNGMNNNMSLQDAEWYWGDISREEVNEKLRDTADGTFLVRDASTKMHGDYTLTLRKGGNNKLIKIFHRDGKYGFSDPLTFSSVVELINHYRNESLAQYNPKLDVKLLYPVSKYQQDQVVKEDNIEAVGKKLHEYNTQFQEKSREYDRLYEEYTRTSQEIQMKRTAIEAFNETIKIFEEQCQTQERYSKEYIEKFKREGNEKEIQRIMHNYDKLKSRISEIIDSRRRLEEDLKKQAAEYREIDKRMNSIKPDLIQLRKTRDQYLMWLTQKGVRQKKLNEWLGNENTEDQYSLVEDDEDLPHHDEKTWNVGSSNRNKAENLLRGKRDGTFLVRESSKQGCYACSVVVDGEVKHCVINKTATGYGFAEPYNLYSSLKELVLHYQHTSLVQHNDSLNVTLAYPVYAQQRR
# ASSAY_COMMENT: ADP-Glo Biochemical PIK3CA Kinase Assay
MEASURED_PARAMETER: IC50

Please review the entries below; each comes with its answer.
Measured IC50, CNC(=O)c1cnc(Nc2ccccc2C)c(Nc2cc(F)c3cn[nH]c3c2)c1 : 10 to 100 µM

Measured IC50, CNC(=O)c1cnc(Nc2ccccc2C)c(NC(=O)c2cc(F)c3[nH]ncc3c2)c1 : 10 to 100 µM

Measured IC50, Cc1cc(Cn2cc(NC(=O)c3csc4ccccc34)c(Nc3ccccc3C)cc2=O)no1 : 0.1 to 0.5 µM

Measured IC50, CNC(=O)c1cnc(Nc2ccccc2C)c(NC(=O)c2csc3ccc(Cl)cc23)c1 : 0.1 to 0.5 µM

Measured IC50, Cc1ccccc1Nc1ncc(C(=O)NCc2ccn(C)n2)cc1NC(=O)c1cc(F)cc(C(F)(F)F)c1 : 0.1 to 0.5 µM

Measured IC50, CNC(=O)c1cnc(Nc2ccccc2C)c(NC(=O)Cc2cn(C)c3ccccc23)c1 : 10 to 100 µM

Measured IC50, CNC(=O)CN1CC(=O)N[C@H](c2cc(F)ccc2Cl)[C@H]1C(=O)NC1CCCC(C(F)(F)F)C1 (mixture of isomers) : 10 to 100 µM

For the next question, use this compound.
Measured IC50, CNC(=O)c1cnc(Nc2ccccc2)c([N+](=O)[O-])c1 : 10 to 100 µM

---

# TEST_TARGET: H1047R PIK3CA enzyme (Homo sapiens, UniProt P42336, H1047R)
# ASSAY_COMMENT: ADP-Glo Biochemical PIK3CA Kinase Assay
Form field: IC50 (one value per entry).

Please review the entries below; each comes with its answer.
Test item Cc1ccccc1Nc1ncc(-c2cnn(C)c2)cc1NC(=O)c1cccc2ccncc12 [I-105] ; H1047R PIK3CA enzyme (Homo sapiens, UniProt P42336, H1047R); reported IC50 was 10 to 100 µM

Test item Cc1ccccc1Nc1ncc(C(=O)Nc2cc[nH]n2)cc1NC(=O)c1cc(F)cc(C(F)(F)F)c1 [I-230] ; H1047R PIK3CA enzyme (Homo sapiens, UniProt P42336, H1047R); reported IC50 was 1 to 10 µM

Test item CNC(=O)c1cnc(NC2CCCCC2)c(NC(=O)c2cc(F)cc(C(F)(F)F)c2)c1 [I-359] ; H1047R PIK3CA enzyme (Homo sapiens, UniProt P42336, H1047R); reported IC50 was 10 to 100 µM

Test item CNC(=O)c1cnc(Nc2ncco2)c(NC(=O)c2cc(F)cc(C(F)(F)F)c2)c1 [I-291] ; H1047R PIK3CA enzyme (Homo sapiens, UniProt P42336, H1047R); reported IC50 was 10 to 100 µM

Test item Cc1ccccc1Nc1ncc(-c2ccc(O)cc2)cc1NC(=O)c1cc(F)cc(C(F)(F)F)c1 [I-82] ; H1047R PIK3CA enzyme (Homo sapiens, UniProt P42336, H1047R); reported IC50 was 0.5 to 1 µM

New cases:
Test item CNC(=O)c1cnc(Nc2ccccc2C)c(NC(=O)c2c(C)sc3ccccc23)c1 [I-328] ; H1047R PIK3CA enzyme (Homo sapiens, UniProt P42336, H1047R); reported IC50 was 10 to 100 µM

Test item Cc1ccccc1Nc1ccncc1NC(=O)c1csc2ccccc12 [I-344] ; H1047R PIK3CA enzyme (Homo sapiens, UniProt P42336, H1047R); reported IC50 was 1 to 10 µM

---

# TEST_TARGET: H1047R PIK3CA enzyme (Homo sapiens, UniProt P42336, H1047R)
# ASSAY_COMMENT: ADP-Glo Biochemical PIK3CA Kinase Assay
pIC50: −log10 of the molar value.
Form field: pIC50 (one value per entry).

Please review the entries below; each comes with its answer.
Test item CC(C)(C)OC(=O)N1CCC(Nc2ncccc2NC(=O)c2csc3ccccc23)CC1 [I-151] ; H1047R PIK3CA enzyme (Homo sapiens, UniProt P42336, H1047R); reported pIC50 was 4.00 to 5.00

Test item CNC(=O)c1cnc(Nc2ccccc2C)c(NC(=O)c2ccc(F)c(F)c2OC)c1 [I-378] ; H1047R PIK3CA enzyme (Homo sapiens, UniProt P42336, H1047R); reported pIC50 was 4.00 to 5.00

Test item CNC(=O)c1cnc(Nc2cccc(F)c2F)c(NC(=O)c2cc(F)cc(C(F)(F)F)c2)c1 [I-296] ; H1047R PIK3CA enzyme (Homo sapiens, UniProt P42336, H1047R); reported pIC50 was 6.30 to 7.00

New cases:
Test item O=C(NC1CS(=O)(=O)C1)c1cnc(N2CCCOc3ccccc32)c(NC(=O)c2csc3ccccc23)c1 [I-277] ; H1047R PIK3CA enzyme (Homo sapiens, UniProt P42336, H1047R); reported pIC50 was 4.00 to 5.00

---

# TEST_TARGET: H1047R PIK3CA enzyme (Homo sapiens, UniProt P42336, H1047R)
# ASSAY_COMMENT: ADP-Glo Biochemical PIK3CA Kinase Assay
# EXPERIMENTAL_CONTEXT: ADP-Glo biochemical PIK3CA kinase assay
# Procedure: Compounds to be assayed were plated in 16 doses of 1:2 serial dilutions (20 nL volume each well) on a 1536-well plate, and the plate warmed to room temperature. PIK3CA enzyme (e.g. H1047R, E542K, E545K, or wild-type) (1 μL of 2 nM solution in Enzyme Assay Buffer (comprising 50 mM HEPES pH 7.4, 50 mM NaCl, 6 mM MgCl2, 5 mM DTT and 0.03% CHAPS)) was added and shaken for 10 seconds and preincubated for 30 minutes. […]
pIC50: −log10 of the molar value.
MEASURED_PARAMETER: pIC50

Measured pIC50, CNC(=O)c1cnc(Nc2ccccc2C)c(NC(=O)c2cc(Br)cc3ccccc23)c1 : 4.00 to 5.00

Measured pIC50, COCC(=O)N1CCC(NC(=O)c2cnc(Nc3ccccc3C)c(NC(=O)c3csc4ccccc34)c2)CC1 : 5.00 to 6.00

Measured pIC50, COCC1CN(C(=O)c2cnc(Nc3ccccc3C)c(NC(=O)c3csc4ccccc34)c2)C1 : 5.00 to 6.00

---

Form field: pIC50 (one value per entry).
# TEST_TARGET: H1047R PIK3CA enzyme (Homo sapiens, UniProt P42336, H1047R)
# ASSAY_COMMENT: ADP-Glo Biochemical PIK3CA Kinase Assay
# EXPERIMENTAL_CONTEXT: ADP-Glo biochemical PIK3CA kinase assay
# Protocol: Compounds to be assayed were plated in 16 doses of 1:2 serial dilutions (20 nL volume each well) on a 1536-well plate, and the plate warmed to room temperature. PIK3CA enzyme (e.g. H1047R, E542K, E545K, or wild-type) (1 μL of 2 nM solution in Enzyme Assay Buffer (comprising 50 mM HEPES pH 7.4, 50 mM NaCl, 6 mM MgCl2, 5 mM DTT and 0.03% CHAPS)) was added and shaken for 10 seconds and preincubated for 30 minutes. […]
pIC50: −log10 of the molar value.

Test item Cc1ccccc1Nc1ncc(C(=O)NCc2ccon2)cc1NC(=O)c1csc2ccccc12 ; H1047R PIK3CA enzyme (Homo sapiens, UniProt P42336, H1047R); reported pIC50 was ≥ 7.00

Test item CNC(=O)c1cnc(Nc2cc(F)ccc2Cl)c(NC(=O)c2csc3ccccc23)c1 ; H1047R PIK3CA enzyme (Homo sapiens, UniProt P42336, H1047R); reported pIC50 was 5.00 to 6.00

Test item CNC(=O)c1cnc(Nc2ccc3c(c2)N(C)C(=O)CO3)c(NC(=O)c2csc3ccccc23)c1 ; H1047R PIK3CA enzyme (Homo sapiens, UniProt P42336, H1047R); reported pIC50 was 5.00 to 6.00

Test item Cc1ccccc1Nc1ncc(C(=O)NCCn2nccn2)cc1NC(=O)c1csc2ccccc12 ; H1047R PIK3CA enzyme (Homo sapiens, UniProt P42336, H1047R); reported pIC50 was 6.30 to 7.00

Test item CNC(=O)c1cnc(Nc2ccccc2C)c(NC(=O)c2cc3cccc(Cl)c3s2)c1 ; H1047R PIK3CA enzyme (Homo sapiens, UniProt P42336, H1047R); reported pIC50 was 5.00 to 6.00

Test item CC(NC(=O)c1cnc(N)c(NC(=O)c2csc3ccccc23)c1)c1nnc2ccccn12 (centres unmarked) ; H1047R PIK3CA enzyme (Homo sapiens, UniProt P42336, H1047R); reported pIC50 was 6.30 to 7.00

Test item CNC(=O)c1cnc(Nc2ccccc2C)c(NC(=O)c2cnc3c(Cl)cccn23)c1 ; H1047R PIK3CA enzyme (Homo sapiens, UniProt P42336, H1047R); reported pIC50 was 4.00 to 5.00
